Entry source: patent US20130296258A1

Recorded pEC50 values for a group of binders are listed next.
biological target: T1, cyno GPC3-SK-HEP1 (Macaca fascicularis, UniProt A0A2K5VK50); test: flow cytometry on SK-HEP1 cells stably transfected with cynomolgus GPC3, detection via rabbit anti-hNGAL antiserum and anti-rabbit IgG-PE
T1 construct: cell-surface protein on transfected cells; also called cynomolgus GPC3; cyno GPC3 transfected SK-Hep1 cells
pEC50: −log10 of the molar value.

{"columns": ["BINDER", "pEC50"],
 "data": [
  ["PIE-G3B (designed binder, C-terminal Strep-tag II; also called Lcn2 mutein; not shown: C-terminal Strep-tag II) QDSTSDLIPAPPLSKVPLQQNFQDNQFHGKWYVVGVAGNAMLREDKDPLKMRATIYELKEDKSYNVTGVSFWRKKCHYKIGTFVPGSQPGEFTLGDIKSGPGQTSNLVRVVSTNYNQHAMVFFKEVRQNREWFAITLYGRTKELTSELKENFIRFSKSLGLPENHIVFPVPIDQCIDGSAWSHPQFEK", 8.96],
  ["PIE-G3G (designed binder, C-terminal Strep-tag II; also called Lcn2 mutein; not shown: C-terminal Strep-tag II) QDSTSDLIPAPPLSKVPLQQNFQDNQFHGKWYVVGMAGNASLREDKDPRKMNATIYELKEDKSYNVTKVRFWHKKCYYSITTFVPGSQPGEFTLGDIKSYPGWTSYLVRVVSTNYNQHAMVFFKGVRQNREWFSITLYGRTKELTSELKENFIRFSKSLGLPENHIVFPVPIDQCIDGSAWSHPQFEK", 9.70],
  ["PIE-G3D (designed binder, C-terminal Strep-tag II; also called Lcn2 mutein; not shown: C-terminal Strep-tag II) QDSTSDLIPAPPLSKVPLQQNFQDNQFHGKWYVVGMAGNARLREDKDPVKMTATIYELKEDKSYNVTAVQFRLKKCQYGITTFVPGSQPGEFTLGDIKSIPGLTSMLVRVVSTNYNQHAMVFFKRVRQNREFFDITLYGRTKELTSELKENFIRFSKSLGLPENHIVFPVPIDQCIDGSAWSHPQFEK", 9.15],
  ["PIE-G3H (designed binder, C-terminal Strep-tag II; also called Lcn2 mutein; not shown: C-terminal Strep-tag II) QDSTSDLIPAPPLSKVPLQQNFQDNQFHGKWYVVGIAGNYILREDKDPPKMRATIYELKEDKSYNVTRVFFSRKKCDYIIWTFVPGSQPGEFTLGFIKSNPGLTSLLVRVVSTNYNQHAMVFFKWVDQNREVFGITLYGRTKELTSELKENFIRFSKSLGLPENHIVFPVPIDQCIDGSAWSHPQFEK", 7.01],
  ["PIE-G3F (designed binder, C-terminal Strep-tag II; also called Lcn2 mutein; not shown: C-terminal Strep-tag II) QDSTSDLIPAPPLSKVPLQQNFQDNQFHGKWYVVGIAGNGQLREDKDPWKMSATIYELKEDKSYNVTSVRFRLKKCSYWIYTFVPGSQPGEFTLGGIKSNPGDTSNLVRVVSTNYNQHAMVFFKYVIQNREWFIITLYGRTKELTSELKENFIRFSKSLGLPENHIVFPVPIDQCIDGSAWSHPQFEK", 8.49]
]}
